# Test system: LXRb:RXRa (NR concentration 270 nM, RXRa partner concentration 90 nM)
# Measurement description: PBM binding z-score (relative to random genomic background probes); higher = stronger binding; sequences stand for … in GC…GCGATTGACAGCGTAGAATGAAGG
Could you please classify the records by PBM binding z-score using these ranges: Low (below 0.9), Mid (0.9 to below 2), High (2 or more)

Consider the worked cases shown below.
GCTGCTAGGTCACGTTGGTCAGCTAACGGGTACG    Mid
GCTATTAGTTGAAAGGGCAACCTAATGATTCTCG    Mid
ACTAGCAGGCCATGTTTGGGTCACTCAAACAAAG    Low

Class (by measured PBM binding z-score) for `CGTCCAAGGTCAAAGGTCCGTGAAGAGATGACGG`
High

Class (by measured PBM binding z-score) for `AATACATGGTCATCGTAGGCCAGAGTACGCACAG`
Low

Class (by measured PBM binding z-score) for `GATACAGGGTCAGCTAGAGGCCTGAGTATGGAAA`
Mid

Class (by measured PBM binding z-score) for `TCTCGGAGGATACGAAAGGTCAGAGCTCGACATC`
High

Class (by measured PBM binding z-score) for `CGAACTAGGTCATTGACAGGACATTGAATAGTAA`
High

Class (by measured PBM binding z-score) for `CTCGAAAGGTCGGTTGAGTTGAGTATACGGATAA`
Mid

Class (by measured PBM binding z-score) for `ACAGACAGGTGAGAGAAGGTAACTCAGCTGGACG`
Low

Class (by measured PBM binding z-score) for `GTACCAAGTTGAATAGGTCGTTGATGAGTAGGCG`
Low

Class (by measured PBM binding z-score) for `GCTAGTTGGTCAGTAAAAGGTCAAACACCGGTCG`
High

Value source: the supplement of paper PMC6555819
